# target-under-test: Sentrin-specific protease 6 (Homo sapiens) (UniProt Q9GZR1)
# Sequence (Q9GZR1 628-1112 limits assumed): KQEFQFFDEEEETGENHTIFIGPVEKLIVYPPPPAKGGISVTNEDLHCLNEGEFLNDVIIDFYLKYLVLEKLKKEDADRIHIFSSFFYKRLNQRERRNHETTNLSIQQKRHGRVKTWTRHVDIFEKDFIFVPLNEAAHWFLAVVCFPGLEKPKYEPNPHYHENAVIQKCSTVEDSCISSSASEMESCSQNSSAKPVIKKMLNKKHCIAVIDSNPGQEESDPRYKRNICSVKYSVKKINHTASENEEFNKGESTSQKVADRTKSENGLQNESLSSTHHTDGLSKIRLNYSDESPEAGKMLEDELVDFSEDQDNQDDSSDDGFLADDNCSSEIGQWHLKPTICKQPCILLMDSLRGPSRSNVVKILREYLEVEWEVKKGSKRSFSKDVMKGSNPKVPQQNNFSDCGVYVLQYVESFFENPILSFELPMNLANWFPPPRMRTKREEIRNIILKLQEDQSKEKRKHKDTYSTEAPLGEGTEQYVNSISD
# test-details: SENP6 protease inhibitors, confirmation, biochemical, luminescence, single concentration (AID 488915)
# run-parameters: recombinant SENP6, Z-RLRGG-aminoluciferin luminescence; at 12.5 µM; stronger effect = higher value
The other results are listed elsewhere or left out.
Grouping rule (inhibition): small value = under 30%, mid value = from 30% up to 60%, large value = 60% and over

compound	label-class
c1ccc2sc(NN=C3CCCC3)nc2c1	large value
CCOC(=O)/C(C#N)=C/c1ccc(N2CCCCC2)cc1	mid value
O=[N+]([O-])c1ccccc1N/N=C1\CCc2ccccc21	small value
O=C(Nc1ccn(Cc2ccccc2)n1)c1n[nH]c([N+](=O)[O-])c1Cl	large value
COc1cccc(C(=O)Nc2ccc(NC(=O)c3ccco3)cn2)c1	mid value
Brc1ccc(-c2nnc(-c3ccccc3)o2)o1	mid value
CCN1C(=O)c2cccc3c(N)ccc1c23	mid value
Oc1cccc2ccc(/C=C/c3ccc(Br)s3)nc12	large value
CC(C)(C)c1ccc(NC(=O)NCc2ccco2)cc1	small value
Cc1ccc(S(=O)(=O)C(C#N)c2nc3ccccc3nc2N2CCCC2)cc1C (configuration not stated)	small value
CCOC(=O)c1cccc(NC(=O)c2ccc(F)cc2F)c1	mid value

---

# target-under-test: PEG-3 (UniProt Q6IN02)
# Sequence (Q6IN02 whole entry, looked up): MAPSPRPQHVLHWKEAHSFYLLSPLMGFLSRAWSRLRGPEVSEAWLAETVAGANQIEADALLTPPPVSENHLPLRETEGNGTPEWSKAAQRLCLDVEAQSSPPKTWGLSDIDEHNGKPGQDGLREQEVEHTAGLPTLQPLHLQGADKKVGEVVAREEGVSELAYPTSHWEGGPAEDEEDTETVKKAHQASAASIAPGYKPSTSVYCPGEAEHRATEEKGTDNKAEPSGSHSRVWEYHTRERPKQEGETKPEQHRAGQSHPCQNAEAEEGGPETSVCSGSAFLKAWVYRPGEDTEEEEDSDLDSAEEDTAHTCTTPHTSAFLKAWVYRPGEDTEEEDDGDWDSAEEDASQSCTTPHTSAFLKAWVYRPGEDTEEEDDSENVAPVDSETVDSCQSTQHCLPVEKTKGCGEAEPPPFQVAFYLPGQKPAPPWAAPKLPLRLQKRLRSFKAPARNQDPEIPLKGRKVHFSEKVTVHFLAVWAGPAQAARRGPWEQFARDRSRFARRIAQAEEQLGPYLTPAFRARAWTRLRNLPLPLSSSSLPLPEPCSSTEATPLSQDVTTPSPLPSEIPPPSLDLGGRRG
# test-details: Peg3 promoter luciferase inhibitors, potency, dose response, cell-based, HeLa, CREF/GAPDH counter-screen panel (AID 624167)
# run-parameters: CREF/GAPDH counter-screens; HeLa PEG-Prom luciferase reporter, overnight, run 2, dose range 1, at 100 µM (top of the series) unless noted
Listing of recorded inhibition by entry.

compound	inhibition, %
O=C(CN1CCCC1)Nc1ccc(-c2nc3cc(NC(=O)CN4CCCC4)ccc3o2)cc1	102
COc1cccc(Nc2nc(C(N)C3CCCCC3)cs2)n1 (stereo not given)	102
COc1cccc2c1C(=N)c1c(O)c3c(c(O)c1C2=O)CC(O)(C(C)=O)CC3OC1CC(N)C(O)C(C)O1 (stereo not given)	102
COc1ccc(S(=O)(=O)N2c3ccccc3OCC2c2ccccc2)cc1 (stereo not given)	-3.52
O=C(Nc1ccc(CN2CCCCC2)cc1)Nc1ccc(Br)cc1Cl	101
Cc1cc(C)c2nc(N(CCCN(C)C)C(=O)c3ccc(S(=O)(=O)N4CCCCCC4)cc3)sc2c1	100
Nc1ccc(-c2nc3ccc(C(=O)O)cc3s2)cc1	98.9
CCOc1ccc(NC(=O)c2ccccn2)cc1	91.5
CCC(=C(c1ccc(OC)cc1)c1ccc(OC)cc1)c1cn(CC(O)CN2CCN(C)CC2)c2ccccc12 (stereo not given)	98.3
O=C(CCCN1C(=O)/C(=C/c2ccccc2Cl)SC1=S)NNC(=O)c1ccccc1Cl	101

---

Listing of recorded inhibition by entry.
# System: Rat fibroblasts (CREF)
# test-details: Peg3 promoter luciferase inhibitors, potency, dose response, cell-based, HeLa, CREF/GAPDH counter-screen panel (AID 624167)
# run-parameters: CREF/GAPDH counter-screens; run 1, dose range 1, at 100 µM (top of the series)

molecule	inhibition (%)
COc1ccc(C(=O)CN2C(=O)c3ccccc3S2(=O)=O)cc1	96.6
O=C(/C=C/Nc1ccccc1Br)c1ccccn1	97.6
O=C(Nc1nc2cc3c(cc2s1)OCCO3)C1=COCCO1	95.3
CCC(C)Cn1c(O)cc2nn(-c3nc4ccccc4s3)c(=O)c-2c1C (configuration not stated)	72.9
Cc1ccc2nc(-c3ccccc3)cn2c1	100
COC(=O)c1c(N)sc(C(=O)NCCc2ccccc2)c1C	93.6
c1ccc(-c2nc(-c3ccccn3)no2)cc1	98
CCOC(=O)Cc1csc(NC(=S)NC(=O)c2ccc(Cl)cc2)n1	88
O=C1C=CC(=O)N1c1ccc(-c2nc3ccccc3o2)cc1	101
O=C(N/N=C/c1cccs1)c1n[nH]c2c1CCCC2	96.4
COc1cc(CNCCCN2CCOCC2)cc(Br)c1OCc1ccc(Cl)cc1	100
COc1cc(C(=O)N/N=C(\c2ccccc2)c2ccccn2)cc(OC)c1OC	72.1
Cc1ccc(OCC(=O)c2cc(C)n(-c3ccccc3)c2C)c([N+](=O)[O-])n1	-20
Clc1cccc(-c2nc(-c3ccccn3)no2)c1	96.4
Cc1ccc(/C=C2\SC(=S)N(CCCC(=O)Nc3ccccn3)C2=O)cc1	-11.8
Brc1ccc(N=Nc2ccc3ccccc3n2)cc1	97.1
COC(=O)Cc1[nH]n(-c2nc3ccccc3s2)c(=O)c1C(C)=Nc1ccc(C)cc1	78.5
Cc1ccc(C(=O)Nc2cc3ccccc3oc2=O)cc1	84.6
CCSc1nc2ccccc2n1C(=O)/C=C\c1ccc(OC)c(OC)c1	46.8
CC(C)(C)c1ccc(Oc2ccc(N)cc2)cc1	60.1
CCCC(=O)NC(c1ccc(C)cc1)c1ccc2cccnc2c1O (configuration not stated)	3.2
Cc1cc(C(=O)COC(=O)c2ccccc2O)c(C)n1CC1CCCO1 (configuration not stated)	99.6
c1ccc(-c2noc(-c3ccc4c(c3)OCO4)n2)nc1	95.9
Oc1c(I)cc(Cl)c2cccnc12	87
CN=c1sc2c(n1C)C(=O)c1ccccc1C2=O	97.8
C(=N\Nc1ccc2ccccc2n1)/c1ccc2c(c1)OCCO2	53.6
CN1C/C(=C/c2ccccc2[N+](=O)[O-])C(=O)/C(=C\c2ccccc2[N+](=O)[O-])C1	71.1

---

# Test system: Rat fibroblasts (CREF)
# test-details: Peg3 promoter luciferase inhibitors, potency, dose response, cell-based, HeLa, CREF/GAPDH counter-screen panel (AID 624167)
# run-parameters: CREF/GAPDH counter-screens; run 2, dose range 1, at 100 µM (top of the series)
Listing of recorded inhibition by entry.

compound	inhibition, %
O=C(Nc1nc2cc3c(cc2s1)OCCO3)c1ccco1	95.1
CCCC(=O)NC(c1ccc(C(C)C)cc1)c1ccc2cccnc2c1O (stereo unspecified)	7.77
CC(C)(C)c1ccc(Oc2ccc(N)cc2)cc1	83.1
O=C(NC1=NCCS1)C1COc2ccccc2O1 (stereo unspecified)	87.4
CN(C)CCCN(C(=O)c1ccc(S(=O)(=O)N2CCc3ccccc3C2)cc1)c1nc2ccc(F)cc2s1	98.9
Cc1nc(SCC(=O)Nc2nc3ccccc3s2)c(C#N)c(C)c1C	97
Cc1ccccc1OCC(O)CNC1CCC(NCC(O)COc2ccccc2C)CC1 (stereo unspecified)	97.9
O=C(Nc1ccc(Cc2ccncc2)cc1)c1ccc([N+](=O)[O-])o1	99.5
O=C(NNC(=O)c1cccnc1SCc1cccc([N+](=O)[O-])c1)c1ccccn1	42.9
C(=N\Nc1nc2ccccc2[nH]1)/c1ccccn1	96.8
CCOC(=O)c1c(SCCN2CCCCC2)n(-c2ccccc2)c(=S)n(-c2ccccc2)c1=O	94.6

---

# target-under-test: Caspase-3 (Homo sapiens)
# test-details: caspase-3 protease inhibitors, confirmation, selectivity assay for SENP inhibitor project, biochemical, single concentration (AID 488918);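 note: plate controls were enzyme with DMSO for no effect and wells without caspase-3 for full effect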
# run-parameters: purified caspase-3, Z-DEVD-aminoluciferin luminescence, 60 min; at 12.5 µM
This is one part of the list. Active and inactive are the calls of the source.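 The calls were made as follows: active = mean inhibition above about 50% (limit read from the data); inactive = the rest.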
Possible outcomes: yes (1) for active, no (0) for inactive

compound-string	label-class
CCNc1nc(N)nc(Oc2ccc(OCC)nn2)n1	no (0)
COc1ccc(-c2cn3ccsc3n2)cc1	yes (1)
CC(=O)N(C1=C(Cl)C(=O)c2ccccc2C1=O)c1ccc(C(=O)O)cc1	no (0)
CNc1nc(Nc2ccc(C)c(Cl)c2)nc(N)c1[N+](=O)[O-]	yes (1)
Brc1ccc(-c2nnc(-c3ccccc3)o2)o1	yes (1)
CSc1ccc(/C=N/NC(=O)c2cccc(Cl)c2)cc1	yes (1)
Cc1ccccc1C(=O)Nc1ccc(N2CCCCCC2)cc1	yes (1)
CC(=O)c1sc(NC(=O)c2ccc(C)cc2)nc1C	no (0)

---

Listing of recorded activity, % sensitization by entry.
# target-under-test: Tumor necrosis factor receptor superfamily member 10B (Homo sapiens) (UniProt O14763)
# Sequence (O14763 whole entry, looked up): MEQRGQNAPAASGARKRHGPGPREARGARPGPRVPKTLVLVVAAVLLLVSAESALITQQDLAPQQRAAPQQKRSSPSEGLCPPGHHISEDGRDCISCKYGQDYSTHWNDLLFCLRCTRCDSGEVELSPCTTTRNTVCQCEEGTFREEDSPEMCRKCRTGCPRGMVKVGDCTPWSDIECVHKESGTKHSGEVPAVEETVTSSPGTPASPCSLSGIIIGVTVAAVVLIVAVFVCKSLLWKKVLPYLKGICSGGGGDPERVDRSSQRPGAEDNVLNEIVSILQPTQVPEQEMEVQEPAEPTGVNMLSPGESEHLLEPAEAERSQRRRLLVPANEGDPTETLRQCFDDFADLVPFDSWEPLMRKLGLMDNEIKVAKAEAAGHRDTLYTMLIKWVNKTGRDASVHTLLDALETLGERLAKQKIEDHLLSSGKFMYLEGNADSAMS
# test-details: TRAIL sensitizers in caspase-8 expressing neuroblastoma cells, dose response, NB7 cells plus caspase-8, luminescence, panel (AID 652002)
# run-parameters: NB7 neuroblastoma +caspase-8, TRAIL sensitization, luminescence viability, NB7+Caspase-8, with TRAIL, run 2; at 12.5 µM (top of the series)
measurement-label: activity, % sensitization (%)

compound	measurement-label	value-observed
Cc1ccc(NC(=O)c2ccccc2O)cc1	activity, % sensitization	37.1
CC(C)Cc1nc2oc3c(Cl)ncnc3c2c2c1CCCC2	activity, % sensitization	-15
Cc1cccc2nc(=S)n(C(=O)c3ccco3)n12	activity, % sensitization	-6.02
Cc1cc(-c2ccccc2)nc(Nc2nc3c(C)cccc3c(=O)[nH]2)n1	activity, % sensitization	10.5
O=C(NC(=S)Nc1nc2c(s1)CCCC2)c1ccccc1	activity, % sensitization	47.5
C#Cc1ccc(NC(=O)C2(C)CCN2C(=O)Cc2ccc(C(C)C)cc2)cc1 (stereo not drawn)	activity, % sensitization	11.5
Cc1cc(NC(=O)c2cncc(Br)c2)ccc1NC(=O)c1cc2ccccc2o1	activity, % sensitization	53.9
CCCCCCCn1c2c(c(=N)c3ccccc31)CCC2	activity, % sensitization	38.9
Cc1ccc(-n2nnc(-c3cccnc3Cl)n2)cc1	activity, % sensitization	-11.1
COC(=O)CSc1nc2cc(C)ccc2cc1C#N	activity, % sensitization	53.4
O=c1[nH]c(N/N=C\c2ccc3c(c2)OCO3)nc2ccccc12	activity, % sensitization	44.5
COc1cc(NC(=O)c2[nH]cnc2C(N)=O)cc(C(=O)Nc2cccc(C(F)(F)F)c2)c1	activity, % sensitization	52.5
CN(C)CCCN(C(=O)c1ccc(C(=O)c2ccccc2)cc1)c1nc2ccc(F)cc2s1	activity, % sensitization	3.85
Fc1ccc(-c2cnn3c(-c4ccncc4)ccnc23)cc1	activity, % sensitization	-2.37
CN(C)c1ccc(N/C=C/C(=O)c2ccco2)cc1	activity, % sensitization	49.4
O/C(=C\c1ccc2ccccc2n1)c1ccc(O)cc1O	activity, % sensitization	48.7
Cn1c(=O)c2c(SCC(=O)Nc3ccccc3F)nc(C3CC3)nc2n(C)c1=O	activity, % sensitization	-10.3
O=Nc1ccc(NO)c2ccccc12	activity, % sensitization	40.7
O=C(Nc1ccc2c(c1)OCO2)c1ccc2c(c1)OCO2	activity, % sensitization	44.3
COCCNc1c(-c2cc3ccc(C)c(C)c3[nH]c2=O)nc2ccccn12	activity, % sensitization	54.8
CCOc1ccc2nc(NC(=O)c3cccc(-c4cc5ccccc5oc4=O)c3)sc2c1	activity, % sensitization	-15.7
O=C1c2ccc(Cl)cc2S(=O)(=O)c2cccc(C(=O)N3CCC(Cc4ccccc4)CC3)c21	activity, % sensitization	3.7
Cc1cccc(CC(=O)Nc2cc(C)c3c(=O)oc4ccccc4c3n2)c1	activity, % sensitization	-4.35
